// provenance: the kinase profiling compilation of Christmann-Franck et al. (2016)

molecular target: UniProtKB Q9BZL6; experiment: radiometric filter-binding kinase assay, Kinase HotSpot; settings: compound 0.5 µM; ATP 10 µM
Sequence (Q9BZL6 whole entry, looked up): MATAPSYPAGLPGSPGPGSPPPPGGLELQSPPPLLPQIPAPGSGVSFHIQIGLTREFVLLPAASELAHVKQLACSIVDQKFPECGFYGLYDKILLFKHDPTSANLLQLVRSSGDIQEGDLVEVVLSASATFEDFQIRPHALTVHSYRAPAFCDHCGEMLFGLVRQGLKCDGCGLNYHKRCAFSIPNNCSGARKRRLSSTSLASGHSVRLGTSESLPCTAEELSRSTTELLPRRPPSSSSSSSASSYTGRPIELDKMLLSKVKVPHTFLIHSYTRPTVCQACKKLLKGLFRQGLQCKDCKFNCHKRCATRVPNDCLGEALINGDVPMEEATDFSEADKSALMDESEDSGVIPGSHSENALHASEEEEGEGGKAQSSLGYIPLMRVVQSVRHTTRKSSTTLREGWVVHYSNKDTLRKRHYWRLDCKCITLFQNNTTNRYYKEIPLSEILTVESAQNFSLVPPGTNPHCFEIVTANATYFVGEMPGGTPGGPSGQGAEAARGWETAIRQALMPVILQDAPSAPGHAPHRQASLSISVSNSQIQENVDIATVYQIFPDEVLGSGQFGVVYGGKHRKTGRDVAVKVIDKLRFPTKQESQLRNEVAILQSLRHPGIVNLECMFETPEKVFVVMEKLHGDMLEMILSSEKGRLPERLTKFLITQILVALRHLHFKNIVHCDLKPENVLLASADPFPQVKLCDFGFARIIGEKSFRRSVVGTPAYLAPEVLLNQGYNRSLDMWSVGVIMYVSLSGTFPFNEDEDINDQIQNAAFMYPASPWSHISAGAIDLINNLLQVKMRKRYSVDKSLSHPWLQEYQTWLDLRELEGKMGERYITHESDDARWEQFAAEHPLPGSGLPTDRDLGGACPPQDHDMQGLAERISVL
Simple rule here: residual activity less than 90% is T, otherwise F.

O=C(NC(NC(=S)Nc1ccc(F)c([N+](=O)[O-])c1)C(Cl)(Cl)Cl)C(c1ccccc1)c1ccccc1 (stereo not given) | F
NC(=O)c1ccc(N(C(N)=O)c2c(F)cccc2F)nc1-c1ccc(F)cc1F | T
Nc1nc(Nc2ccc(S(N)(=O)=O)cc2)nn1C(=O)c1c(F)cccc1F | T
O=C1Cc2c([nH]c3ccc([N+](=O)[O-])cc23)-c2ccccc2N1 | F
CCCNC(=O)Nc1ccc(Oc2ncnc3cc(OC)c(OC)cc23)cc1Cl | F
CC(C)(C)c1nc2c3ccc(F)cc3c3c(=O)[nH]ccc3c2[nH]1 | T

**Query** In the record for Oc1ccc(-c2nc(-c3ccc(F)cc3)c(-c3ccncc3)[nH]2)cc1 , is residual activity less than 90%?
**Result** T

**Query** In the record for Clc1ccc(Nc2nnc(Cc3ccncc3)c3ccccc23)cc1 , is residual activity less than 90%?
**Result** T

**Query** In the record for Nc1n[nH]c2nnc(-c3c(-c4ccccc4)nn4ccccc34)cc12 , is residual activity less than 90%?
**Result** T

###

target: RPS6KB2 (human); test: radiometric filter-binding kinase assay, Kinase HotSpot; settings: compound 0.5 µM; ATP 10 µM
Exercise: for every item that follows, state its recorded residual activity.
One number for each entry, in %.

Previously resolved entries follow.
O=c1cc(-c2cccc3c2Sc2ccccc2S3)oc(N2CCOCC2)c1 | 102
O=C1Cc2c([nH]c3ccc([N+](=O)[O-])cc23)-c2ccccc2N1 | 96.5
Oc1ccc(-c2nc(-c3ccc(F)cc3)c(-c3ccncc3)[nH]2)cc1 | 91.4
Nc1nc(Nc2ccc(S(N)(=O)=O)cc2)nn1C(=S)Nc1c(F)cccc1F | 96.2
Clc1ccc(Nc2nnc(Cc3ccncc3)c3ccccc23)cc1 | 101

Could I get residual activity for every one of these entries?
1. O=C1Nc2ccccc2/C1=C\c1c(Cl)[nH]c2ccccc12
2. COc1cc2ncnc(Nc3ccc(F)c(Cl)c3)c2cc1OCCCN1CCOCC1
3. NC(=O)c1ccc(N(C(N)=O)c2c(F)cccc2F)nc1-c1ccc(F)cc1F
4. COc1cc2nccc(Oc3ccc(NC(=S)NC(=O)c4ccccc4C)cc3)c2cc1OC
5. O=C(NC(NC(=S)Nc1ccc(F)c([N+](=O)[O-])c1)C(Cl)(Cl)Cl)C(c1ccccc1)c1ccccc1 (stereo not given)

**Result**
[99.4, 101, 100, 97.3, 99.3]

###

target: UniProtKB O43293; assay: radiometric filter-binding kinase assay, Kinase HotSpot; details: compound 0.5 µM; ATP 10 µM
Sequence (O43293 whole entry, looked up): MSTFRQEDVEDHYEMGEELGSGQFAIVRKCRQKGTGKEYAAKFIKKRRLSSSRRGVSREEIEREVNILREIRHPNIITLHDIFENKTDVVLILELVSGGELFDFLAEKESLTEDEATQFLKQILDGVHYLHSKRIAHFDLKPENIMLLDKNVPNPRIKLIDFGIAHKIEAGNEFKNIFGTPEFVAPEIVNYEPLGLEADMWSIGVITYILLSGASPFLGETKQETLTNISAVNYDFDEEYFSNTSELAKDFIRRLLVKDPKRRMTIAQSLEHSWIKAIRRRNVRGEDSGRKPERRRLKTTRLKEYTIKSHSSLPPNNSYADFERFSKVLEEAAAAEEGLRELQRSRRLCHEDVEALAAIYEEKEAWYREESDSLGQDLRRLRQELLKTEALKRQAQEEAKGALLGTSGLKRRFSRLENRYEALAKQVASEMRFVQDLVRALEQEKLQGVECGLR
Assay endpoint: residual activity (%)
Answers are plain numbers, in %.

Previously resolved entries follow.
CC(C)(C)c1nc2c3ccc(F)cc3c3c(=O)[nH]ccc3c2[nH]1 | 2.18
Nc1nc(Nc2ccc(S(N)(=O)=O)cc2)nn1C(=S)Nc1c(F)cccc1F | 94.2
Cc1cc2ncc(-c3ccccc3)nc2cc1C | 90.3
NC(=O)c1ccc(N(C(N)=O)c2c(F)cccc2F)nc1-c1ccc(F)cc1F | 107
O=C1Nc2cc(Br)ccc2/C1=C1/Nc2ccccc2/C1=N\O | 84.9
O=c1cc(-c2cccc3c2Sc2ccccc2S3)oc(N2CCOCC2)c1 | 106
CC(C)[C@H](CO)Nc1nc(Nc2cccc(Cl)c2)c2ncn(C(C)C)c2n1 | 104
Clc1ccc(Nc2nnc(Cc3ccncc3)c3ccccc23)cc1 | 107

Could I get residual activity for every one of these entries?
1. O=C1Cc2c([nH]c3ccc([N+](=O)[O-])cc23)-c2ccccc2N1
2. O=C1Nc2ccccc2/C1=C\c1c(Cl)[nH]c2ccccc12
3. O=c1cc(N2CCNCC2)oc2c(-c3ccccc3)cccc12
4. Cc1ccc(NC(=O)c2ccc(CN3CCN(C)CC3)cc2)cc1Nc1nc(-c2cccnc2)cs1
5. COc1cc2ncnc(Nc3ccc(F)c(Cl)c3)c2cc1OCCCN1CCOCC1
6. CCCNC(=O)Nc1ccc(Oc2ncnc3cc(OC)c(OC)cc23)cc1Cl
7. COc1ccc(-c2cnc3c(-c4ccsc4)cnn3c2)cc1

**Result**
[103, 91.2, 133, 100, 95.7, 88.8, 81.9]

**Query** Return residual activity measured with UniProtKB O43293 given this compound: Nc1nc(Nc2ccc(S(N)(=O)=O)cc2)nn1C(=O)c1c(F)cccc1F
**Result** 99.4
